Data provenance: patent US11510886B2

- experimental.context: STZ-diabetic male rats; before first TI/RI administration; mean ± SD
Counter-ions that a name gives are not always drawn.
parameter.measured: Absolute body weight, Day −2 (distribution of groups)

For orientation, consider the following solved cases.
CN(C)C(=N)N=C(N)N [Metformin hydrochloride, metformin hydrochloride, reference compound]; 223.73 ± 10.88 g
CC(C)[C@H](N)C(=O)O.CN(C)C(=N)NC(=N)N [Metformin valinate, metformin valinate]; 217.43 ± 14.43 g
CN(C)C(=N)NC(=N)N.NC(=O)C[C@H](N)C(=O)O [Metformin asparaginate, metformin asparaginate]; 214.13 ± 12.67 g

Please turn your attention to the following entry.
Item CC[C@H](C)[C@H](N)C(=O)O.CN(C)C(=N)NC(=N)N [Metformin isoleucinate, metformin isoleucinate] has what recorded Absolute body weight, Day −2 (distribution of groups)? 225.17 ± 10.85 g

---

- measurement.protocol: in vivo
- experimental.context: female, Sprague Dawley, rat, plasma, po, 250 mg/kg
Structures can show the parent of a compound that is named as a salt.
parameter.measured: concentration at 24 h
# answer = value followed by unit

Item CN(C)C(=N)N=C(N)N [Metformin hydrochloride, metformin hydrochloride, reference compound] has what recorded concentration at 24 h? 190 ng/mL

---

- experimental.context: STZ-diabetic male rats; baseline before STZ and before first TI/RI administration; mean ± SD
Structures can show the parent of a compound that is named as a salt.
Each entry below lists one item and its recorded Absolute body weight, Day −3 (before STZ administration) value.
Expressed in g, but write only the number.

For orientation, consider the following solved cases.
CN(C)C(=N)N=C(N)N [Metformin hydrochloride, metformin hydrochloride, reference compound]; 231.30
CN(C)C(=N)NC(=N)N.C[C@H](N)C(=O)O [Metformin alaninate, metformin alaninate]; 232.07
CC[C@H](C)[C@H](N)C(=O)O.CN(C)C(=N)NC(=N)N [Metformin isoleucinate, metformin isoleucinate]; 224.63
CN(C)C(=N)NC(=N)N.NC(=O)C[C@H](N)C(=O)O [Metformin asparaginate, metformin asparaginate]; 233.47

Please turn your attention to the following entry.
Item CC(C)[C@H](N)C(=O)O.CN(C)C(=N)NC(=N)N [Metformin valinate, metformin valinate] has what recorded Absolute body weight, Day −3 (before STZ administration)? 233.50

---

- experimental.context: Groups B-K, 250 mg/kg; before dosing; Mean ± SD
parameter.measured: Body weight (g) On distribution day
Expressed in g, but write only the number.

Item CC(C)[C@H](N)C(=O)O.CN(C)C(=N)NC(=N)N [Metformin valinate, metformin valinate] has what recorded Body weight (g) On distribution day? 186.67

Item CN(C)C(=N)NC(=N)N.C[C@H](N)C(=O)O [Metformin alaninate, metformin alaninate] has what recorded Body weight (g) On distribution day? 187.52

Item CN(C)C(=N)NC(=N)N.NC(=O)C[C@H](N)C(=O)O [Metformin asparaginate, metformin asparaginate] has what recorded Body weight (g) On distribution day? 186.85

Item CC[C@H](C)[C@H](N)C(=O)O.CN(C)C(=N)NC(=N)N [Metformin isoleucinate, metformin isoleucinate] has what recorded Body weight (g) On distribution day? 189.10

---

- experimental.context: STZ-diabetic male rats; before first TI/RI administration; mean ± SD
Structures can show the parent of a compound that is named as a salt.
parameter.measured: Absolute body weight, Day −1 (g)
Expressed in g, but write only the number.

For orientation, consider the following solved cases.
CC(C)[C@H](N)C(=O)O.CN(C)C(=N)NC(=N)N [Metformin valinate, metformin valinate]; 213.90
CN(C)C(=N)NC(=N)N.NC(=O)C[C@H](N)C(=O)O [Metformin asparaginate, metformin asparaginate]; 209.73
CN(C)C(=N)NC(=N)N.C[C@H](N)C(=O)O [Metformin alaninate, metformin alaninate]; 208.00
CC[C@H](C)[C@H](N)C(=O)O.CN(C)C(=N)NC(=N)N [Metformin isoleucinate, metformin isoleucinate]; 211.30

Please turn your attention to the following entry.
Item CN(C)C(=N)N=C(N)N [Metformin hydrochloride, metformin hydrochloride, reference compound] has what recorded Absolute body weight, Day −1? 210.43

---

- experimental.context: Groups L-U, 750 mg/kg; before dosing; Mean ± SD
parameter.measured: Body weight (g) On distribution day
Expressed in g, but write only the number.

CN(C)C(=N)NC(=N)N.NC(=O)C[C@H](N)C(=O)O [Metformin asparaginate, metformin asparaginate]; 188.40

Item CC(C)[C@H](N)C(=O)O.CN(C)C(=N)NC(=N)N [Metformin valinate, metformin valinate] has what recorded Body weight (g) On distribution day? 190.28

Item CN(C)C(=N)NC(=N)N.C[C@H](N)C(=O)O [Metformin alaninate, metformin alaninate] has what recorded Body weight (g) On distribution day? 186.18

Item CC[C@H](C)[C@H](N)C(=O)O.CN(C)C(=N)NC(=N)N [Metformin isoleucinate, metformin isoleucinate] has what recorded Body weight (g) On distribution day? 190.40

---

- measurement.protocol: in vivo
- experimental.context: female, Sprague Dawley, rat, plasma, po, 250 mg/kg
Where a name gives a salt, the structure may show the parent alone.
parameter.measured: Cmax (ng/mL)
Expressed in ng/mL, but write only the number.

Item CN(C)C(=N)N=C(N)N [Metformin hydrochloride, metformin hydrochloride, reference compound] has what recorded Cmax? 16300

---

Each entry below lists one item and its recorded Metformin base concentration in plasma, 4 h post-administration value.
- experimental.context: rat, in vivo, po, 250 mg/kg
# answer = value followed by unit

For orientation, consider the following solved cases.
CN(C)C(=N)NC(=N)N.NC(=O)C[C@H](N)C(=O)O [Metformin asparaginate, metformin asparaginate]; 16.27 ± 2.89 µg/mL
CC[C@H](C)[C@H](N)C(=O)O.CN(C)C(=N)NC(=N)N [Metformin isoleucinate, metformin isoleucinate]; 21.43 ± 3.35 µg/mL
CC(C)[C@H](N)C(=O)O.CN(C)C(=N)NC(=N)N [Metformin valinate, metformin valinate]; 13.70 ± 2.55 µg/mL

Item CN(C)C(=N)NC(=N)N.C[C@H](N)C(=O)O [Metformin alaninate, metformin alaninate] has what recorded Metformin base concentration in plasma, 4 h post-administration? 16.40 ± 5.23 µg/mL

---

- experimental.context: rat, in vivo, po, 250 mg/kg
Each entry below lists one item and its recorded Metformin base concentration in plasma, 8 h post-administration value.
# answer = value followed by unit

CN(C)C(=N)NC(=N)N.NC(=O)C[C@H](N)C(=O)O [Metformin asparaginate, metformin asparaginate]; 7.56 ± 1.49 µg/mL
CC[C@H](C)[C@H](N)C(=O)O.CN(C)C(=N)NC(=N)N [Metformin isoleucinate, metformin isoleucinate]; 4.94 ± 0.80 µg/mL
CN(C)C(=N)NC(=N)N.C[C@H](N)C(=O)O [Metformin alaninate, metformin alaninate]; 3.56 ± 1.19 µg/mL

Item CC(C)[C@H](N)C(=O)O.CN(C)C(=N)NC(=N)N [Metformin valinate, metformin valinate] has what recorded Metformin base concentration in plasma, 8 h post-administration? 4.79 ± 0.38 µg/mL

---

Each entry below lists one item and its recorded Metformin base concentration in plasma, 24 h post-administration value.
- experimental.context: rat, in vivo, po, 250 mg/kg
Expressed in µg/mL, but write only the number.

CC[C@H](C)[C@H](N)C(=O)O.CN(C)C(=N)NC(=N)N [Metformin isoleucinate, metformin isoleucinate]; 0.24

Item CN(C)C(=N)NC(=N)N.NC(=O)C[C@H](N)C(=O)O [Metformin asparaginate, metformin asparaginate] has what recorded Metformin base concentration in plasma, 24 h post-administration? 0.39

Item CC(C)[C@H](N)C(=O)O.CN(C)C(=N)NC(=N)N [Metformin valinate, metformin valinate] has what recorded Metformin base concentration in plasma, 24 h post-administration? 0.21

Item CN(C)C(=N)NC(=N)N.C[C@H](N)C(=O)O [Metformin alaninate, metformin alaninate] has what recorded Metformin base concentration in plasma, 24 h post-administration? 0.22

---

- measurement.protocol: in vivo
- experimental.context: female, Sprague Dawley, rat, plasma, po, 250 mg/kg
Counter-ions that a name gives are not always drawn.
parameter.measured: concentration at 8 h

Item CN(C)C(=N)N=C(N)N [Metformin hydrochloride, metformin hydrochloride, reference compound] has what recorded concentration at 8 h? 3140 ng/mL

---

- measurement.protocol: in vivo
- experimental.context: female, Sprague Dawley, rat, plasma, po, 250 mg/kg
Where a name gives a salt, the structure may show the parent alone.
parameter.measured: concentration at 1 h (ng/mL)
Expressed in ng/mL, but write only the number.

Item CN(C)C(=N)N=C(N)N [Metformin hydrochloride, metformin hydrochloride, reference compound] has what recorded concentration at 1 h? 14800

---

- measurement.protocol: in vivo
- experimental.context: female, Sprague Dawley, rat, plasma, po, 250 mg/kg
Where a name gives a salt, the structure may show the parent alone.
parameter.measured: AUC(0-t) (ng·h/mL)
Expressed in ng·h/mL, but write only the number.

Item CN(C)C(=N)N=C(N)N [Metformin hydrochloride, metformin hydrochloride, reference compound] has what recorded AUC(0-t)? 82000
